Below is a list of entries, each paired with its recorded Kd value.
Target: T1, cyIL-18Rβ-HisAvi (cynomolgus monkey)
T1 construct: Soluble analyte in SPR; also called cyno IL-18Rβ; cynomolgus monkey IL-18Rβ
T1 chain: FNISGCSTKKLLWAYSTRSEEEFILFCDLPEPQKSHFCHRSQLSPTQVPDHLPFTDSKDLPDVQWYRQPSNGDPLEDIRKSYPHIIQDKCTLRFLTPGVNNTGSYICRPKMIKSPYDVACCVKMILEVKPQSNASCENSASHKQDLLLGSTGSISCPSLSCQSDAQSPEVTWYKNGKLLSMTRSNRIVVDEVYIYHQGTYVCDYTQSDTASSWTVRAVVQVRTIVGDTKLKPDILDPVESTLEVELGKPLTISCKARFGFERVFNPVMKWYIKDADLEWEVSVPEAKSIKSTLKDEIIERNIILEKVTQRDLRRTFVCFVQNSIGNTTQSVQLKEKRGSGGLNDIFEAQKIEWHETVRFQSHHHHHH
Assay: SPR T200, mAb on anti-hFc, 37C, pH 7.4
// return numeric value only (unit: nM, not printed)

Worked cases, answers included:
P21-V1 (antibody, human IgG1, kappa, V domains shown, Variant of P21) VH: QVQLQESGPGLVKPSETLSLTCTVSGGSISNYYWTWIRQPPGKGLEWIGYISDSGSTNYNPSLKSRVTISVDTSKNQFSLKLSSVTAADTAVYYCARETIVVRGFYFYVMDVWGQGTTVTVSS VL: AIQLTQSPSSLSASVGDRVTITCRASQGISSALAWYQQKPGKAPKLLIYEASNWESGVPSRFSGSGSGTDFTLTISSLQPEDFATYYCQQFNSYPWTFGQGTKVEIKR :: 8.7
P20-V2 (antibody, human IgG1, kappa, V domains shown, Variant of P20) VH: QVQLQESGPGLVKPSETLSLTCTVSGGSINNYYWSWIRQPPGKGLEWIGYIFYSGTTNYNPSLKSRVTISVDTSKNQFSLKLSSVTAADTAVYYCARDVGIAARNSYYYVMDVWGQGTTVTVSS VL: AIQLTQSPSSLSASVGDRVTITCRASQGISSALAWYQQKPGKAPKFLIYEGSSLESGVPSRFSGSGSGTDFTLTISSLQPEDFATYYCQQFNSYPITFGQGTRLEIKR :: 0.92
P20-V1 (antibody, human IgG1, kappa, V domains shown, Variant of P20) VH: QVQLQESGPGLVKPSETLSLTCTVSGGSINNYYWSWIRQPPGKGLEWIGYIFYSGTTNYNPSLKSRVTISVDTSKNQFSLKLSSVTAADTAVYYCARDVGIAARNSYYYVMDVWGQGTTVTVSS VL: AIQLTQSPSSLSASVGDRVTITCRASQGISSALAWYQQKPGKAPKFLIYEASSLESGVPSRFSGSGSGTDFTLTISSLQPEDFATYYCQQFNSYPITFGQGTRLEIKR :: 1.4

Endpoint output: Kd of P21 (antibody, human IgG1, kappa, V domains shown, Human IgG) VH: QVQLQQSGPGLVKPSETLSLTCTVSGGSISNYYWTWIRQPPGKGLEWIGYISDSGSTNYNPSLKSRVTISVDTSKNQFSLKLSSVTAADTAVYYCARETIVVRGFYFYVMDVWGQGTTVTVSS VL: AIQLTQSPSSLSASVGDRVTITCRASQGISSALAWYQQRPGKAPKLLIYDASNWESGVPSRFSGSGSGTDFTLTISSLQPEDFATYYCQQFNSYPWTFGQGTKVEIKR . Value? 19

Try the binder P20-V3 (antibody, human IgG1, kappa, V domains shown, Variant of P20) VH: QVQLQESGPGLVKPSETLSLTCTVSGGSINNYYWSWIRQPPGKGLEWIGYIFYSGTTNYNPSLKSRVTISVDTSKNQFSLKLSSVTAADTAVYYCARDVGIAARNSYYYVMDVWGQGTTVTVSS VL: AIQLTQSPSSLSASVGDRVTITCRASQGISSALAWYQQKPGKAPKFLIYGASSLESGVPSRFSGSGSGTDFTLTISSLQPEDFATYYCQQFNSYPITFGQGTRLEIKR 1.5
